- Tested on: Pseudomonas aeruginosa
- Test Protocol: MIC against Gram-negative bacteria: Pseudomonas aeruginosa
- Format: cell-based
- Experimental Conditions: 10 h cultivation at 37° C., 5×10^5 CFU/mL, two-fold serial dilution
Quick list: MIC P. aeruginosa per entry.
Write the answer as a number in µg/mL, unit excluded.

Completed entries (count: 3):
Substance: PRT1099 (PSTVCGNEKTNLTCYNGGNCTEFQTELKCMCRPGFTGEWCE; listed as Homo sapiens)
Measurement: 12.5

Substance: PRT1134 (NVDDCLMRPCANGATCLDGINRFSCLCPEGFAGRFCT; listed as Homo sapiens)
Measurement: 12.5

Substance: PRT1171 (NTNDCSPHPCYNSGTCVDGDNWYRCECAPGFAGPDCR; listed as Homo sapiens)
Measurement: 25

## Task Write down the reported MIC P. aeruginosa of PRT1100 (DIDECASDPCVNGGLCQDLLNKFQCLCDVAFAGERCE; listed as Homo sapiens) , test system: Pseudomonas aeruginosa.
## Result 100

## Task Would you mind doing PRT1140 (DVKDCLFLSCQDYGDCEDMVNNFRCICRPGFSGSLCE; listed as Homo sapiens) as well?
## Result 12.5

## Task Would you mind doing PRT1141 (EINECSSEPCKNNGTCVDLTNRFFCNCEPEYHGPFCE; listed as Homo sapiens) as well?
## Result 50

## Task Would you mind doing PRT1186 (KNSSCLPNPCVNGGTCVGSGASFSCICRDGWEGRTCT; listed as Homo sapiens) as well?
## Result 12.5

The origin of these recorded values is patent US9833497B2.
